Recorded values, source patent US20230265151A1.

The binders listed here are annotated with their cAMP EC50 (1.0% HSA).
subject.of.test: T1, human GIP receptor (human, UniProt P48546 22-466)
T1 sequence (looked up): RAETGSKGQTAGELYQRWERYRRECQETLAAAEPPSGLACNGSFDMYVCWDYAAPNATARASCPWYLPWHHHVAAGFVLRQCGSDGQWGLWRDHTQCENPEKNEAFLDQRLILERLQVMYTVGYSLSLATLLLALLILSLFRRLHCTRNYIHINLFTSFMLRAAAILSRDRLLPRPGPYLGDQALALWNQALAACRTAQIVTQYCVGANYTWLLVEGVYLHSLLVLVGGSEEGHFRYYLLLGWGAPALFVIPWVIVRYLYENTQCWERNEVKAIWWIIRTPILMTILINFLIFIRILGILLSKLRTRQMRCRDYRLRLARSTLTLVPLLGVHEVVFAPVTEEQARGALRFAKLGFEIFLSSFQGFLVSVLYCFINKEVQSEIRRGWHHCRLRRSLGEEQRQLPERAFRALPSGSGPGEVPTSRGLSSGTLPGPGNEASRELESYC
test.name: cell-based or functional assay
*1 amine or outer side, *2 acyl side, *3 side chain or, on linkers, in order; H or OH if unused. Where no end group is shown, it is not given here. Side-chain parts run from the residue outwards. [ ]: non-standard residue; d: D form. The star is where a group is joined. Decanoyl(10-(4-HOOC-PhO)) = O=C(O)c1ccc(OCCCCCCCCCC(=O)*)cc1; αMePhe(2-F) = C[C@](N)(Cc1ccccc1F)C(=O)O; γGlu = O=C(O)[C@H](CCC(=O)[*:2])N[*:1]; C14 diacid = O=C(O)CCCCCCCCCCCCC(=O)*; αMeY = C[C@](N)(Cc1ccc(O)cc1)C(=O)O; αMeL = CC(C)C[C@](C)(N)C(=O)O; Orn = NCCC[C@H](N)C(=O)O; AEEA = NCCOCCOCC(=O)O; Aib = CC(C)(N)C(=O)O

binder	cAMP EC50 (1.0% HSA) (nM)
YXEGTXTSDYXIXLDXIAQXXFIKXLIKGGPSSGAPPPS (Y-Aib-EGT-αMeF(2F)-TSDY-Aib-I-αMeL-LD-Orn-IAQ-Aib-Orn-FIK((2-[2-(2-Amino-ethoxy)-ethoxy]-acetyl)2-(γ-Glu)-CO-(CH2)12-CO2H)-αMeY-LIK((2-[2-(2-Amino-ethoxy)-ethoxy]-acetyl)2-(γ-Glu)-CO-(CH2)12-CO2H)GGPSSGAPPPS-NH2) [Example 316]	1.11
Y[Aib]EGT[αMePhe(2-F)]TSDV[Aib]I[αMeL]LD[Orn]IAQ[Aib]K([AEEA-AEEA-γGlu-Decanoyl(10-(4-HOOC-PhO))])FI[dE][αMeY]LIK([AEEA-AEEA-γGlu-Decanoyl(10-(4-HOOC-PhO))])GGPSSGAPPPS-NH2 [Example 330]	6.26
YXEGTXTSDYXIXLDXKAQXEFIXXLIKGGPSSGAPPPS (Y-Aib-EGT-αMeF(2F)-TSDY-Aib-I-αMeL-LD-Orn-K((2-[2-(2-Amino-ethoxy)-ethoxy]-acetyl)2-(γ-Glu)-(10-(4-carboxyphenoxy)decanoyl))AQ-Aib-EFI-(D-Glu)-αMeY-LIK((2-[2-(2-Amino-ethoxy)-ethoxy]-acetyl)2-(γ-Glu)-(10-(4-carboxyphenoxy)decanoyl))GGPSSGAPPPS-NH2) [Example 237]	0.889
YXEGTXTSDXXIXLDXIAQXEFIKXLIKGGPSSGAPPPS (Y-Aib-EGT-αMeF(2F)-TSD-4Pal-Aib-I-αMeL-LD-Orn-IAQ-Aib-EFIK(2-[2-(2-Amino-ethoxy)-ethoxy]-acetyl)2-(γ-Glu)-(11-(4-carboxyphenoxy)undecanoyl)-αMeY-LIK((2-[2-(2-Amino-ethoxy)-ethoxy]-acetyl)2-(γ-Glu)-(11-(4-carboxyphenoxy)undecanoyl)GGPSSGAPPPS-NH2)) [Example 311]	2.16
Y[Aib]EGT[αMePhe(2-F)]TSDV[Aib]I[αMeL]LD[Orn]K([AEEA-AEEA-γGlu-C14 diacid])AQ[Aib][Orn]FI[dE][αMeY]LIK([AEEA-AEEA-γGlu-C14 diacid])GGPSSGAPPPS-NH2 [Example 350]	5.82
YXEGTXTSDYXIXLDXIAQXKFIXXLIEGGPSSGAPPPSK (Y-Aib-EGT-aMeF(2F)-TSDY-Aib-I-aMeL-LD-Orn-IAQ-Aib-K((2-[2-(2-Amino-ethoxy)-ethoxy]-acetyl)2-(γ-Glu)-CO-(CH2)12-CO2H)FI-(D-Glu)-αMeY-LIEGGPSSGAPPPSK((2-[2-(2-Amino-ethoxy)-ethoxy]-acetyl)2-(γ-Glu)-CO-(CH2)12-CO2H)-NH2) [Example 235]	10.1
YXEGTXTSDKSIXLDXKAQXEXIXXLIEGGPSSGAPPPS (Y-Aib-EGT-αMeF(2F)-TSDK((2-[2-(2-Amino-ethoxy)-ethoxy]-acetyl)2-(γ-Glu)-CO-(CH2)10-CH3)SI-αMeL-LD-Orn-K((2-[2-(2-Amino-ethoxy)-ethoxy]-acetyl)2-(γ-Glu)-CO-(CH2)10-CH3)AQ-Aib-E-αMeF-I-(D-Glu)-αMeY-LIEGGPSSGAPPPS-NH2) [Example 293]	0.987
YXEGTXTSDYXIXLDXIAQXKFIXXLIKGGPSSGAPPPS (Y-Aib-EGT-αMeF(2F)-TSDY-Aib-I-αMeL-LD-Orn-IAQ-Aib-K((2-[2-(2-Amino-ethoxy)-ethoxy]-acetyl)2-(γ-Glu)-CO-(CH2)12-CO2H)Fl-(D-Glu)-αMeY-LIK((2-[2-(2-Amino-ethoxy)-ethoxy]-acetyl)2-(γ-Glu)-CO-(CH2)12-CO2H)GGPSSGAPPPS-NH2) [Example 234]	7.58
Y[Aib]EGT[αMePhe(2-F)]TSDV[Aib]I[αMeL]LD[Orn]IAQ[Aib]EFIK([AEEA-AEEA-AEEA-γGlu-Decanoyl(10-(4-HOOC-PhO))])[αMeY]LIK([AEEA-AEEA-AEEA-γGlu-Decanoyl(10-(4-HOOC-PhO))])GGPSSGAPPPS-NH2 [Example 347]	7.27
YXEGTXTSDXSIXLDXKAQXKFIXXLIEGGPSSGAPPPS (Y-Aib-EGT-αMeF(2F)-TSD-OMeY-SI-αMeL-LD-Orn-K((2-[2-(2-Amino-ethoxy)-ethoxy]-acetyl)2-CO-(CH2)12-CO2H)AQ-Aib-K((2-[2-(2-Amino-ethoxy)-ethoxy]-acetyl)2-CO-(CH2)12-CO2H)FI-(D-Glu)-αMeY-LIEGGPSSGAPPPS-NH2 …) [Example 265]	0.775
